details: 250 μM solution of 3′-substituted dTTP, 95° C., PCR buffer (pH 8.4 at 25° C.), 10 min
MEASUREMENT_KIND: Concentration of unmodified dTTP (µM)

• Cc1cn([C@H]2C[C@H](OC3CCCO3)[C@@H](COP(=O)(O)OP(=O)(O)OP(=O)(O)O)O2)c(=O)[nH]c1=O (stereo partly drawn) = 39
• Cc1cn([C@H]2C[C@H](OC3CCCCO3)[C@@H](COP(=O)(O)OP(=O)(O)OP(=O)(O)O)O2)c(=O)[nH]c1=O (stereo partly drawn) = 10
• COCC(=O)O[C@H]1C[C@H](n2cc(C)c(=O)[nH]c2=O)O[C@@H]1COP(=O)(O)OP(=O)(O)OP(=O)(O)O [3′-O[CH3OAc]] = 140
• CC(=O)OC1CC(n2cc(C)c(=O)[nH]c2=O)OC1COP(=O)(O)OP(=O)(O)OP(=O)(O)O (stereo not drawn) = 5
• Cc1cn([C@H]2C[C@H](OC(=O)COc3ccccc3)[C@@H](COP(=O)(O)OP(=O)(O)OP(=O)(O)O)O2)c(=O)[nH]c1=O [3′-O[PhOAc]] = 170
• COC1(O[C@H]2C[C@H](n3cc(C)c(=O)[nH]c3=O)O[C@@H]2COP(=O)(O)OP(=O)(O)OP(=O)(O)O)CCOCC1 = 21

---

target: Klenow (exo-) DNA polymerase (Escherichia coli, UniProt P00582, D355A/E357A); details: room temperature, unheated 3′-substituted dTTP
Sequence (P00582 324-928 D355A/E357A): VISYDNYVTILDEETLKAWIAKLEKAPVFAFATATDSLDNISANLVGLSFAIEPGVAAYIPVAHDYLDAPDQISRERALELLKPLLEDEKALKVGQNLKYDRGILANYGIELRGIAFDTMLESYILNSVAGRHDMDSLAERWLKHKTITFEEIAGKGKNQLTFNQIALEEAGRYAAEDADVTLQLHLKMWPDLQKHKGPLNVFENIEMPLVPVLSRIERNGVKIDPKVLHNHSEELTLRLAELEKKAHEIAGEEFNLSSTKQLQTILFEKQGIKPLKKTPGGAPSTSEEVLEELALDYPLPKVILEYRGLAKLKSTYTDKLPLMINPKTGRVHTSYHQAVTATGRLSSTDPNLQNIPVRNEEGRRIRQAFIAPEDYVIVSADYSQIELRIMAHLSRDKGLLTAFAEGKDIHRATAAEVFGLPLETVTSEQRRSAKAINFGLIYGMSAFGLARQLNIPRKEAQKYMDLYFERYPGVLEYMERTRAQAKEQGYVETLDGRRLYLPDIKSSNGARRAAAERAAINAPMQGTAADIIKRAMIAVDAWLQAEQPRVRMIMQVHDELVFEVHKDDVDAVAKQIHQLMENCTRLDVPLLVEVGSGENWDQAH
MEASUREMENT_KIND: substrate for Klenow (exo-) DNA polymerase (incorporation into the primer)

* Cc1cn([C@H]2C[C@H](OC3CCCCO3)[C@@H](COP(=O)(O)OP(=O)(O)OP(=O)(O)O)O2)c(=O)[nH]c1=O (stereo partly shown) [3′-THP-dTTP] | not substrates
* COC1(O[C@H]2C[C@H](n3cc(C)c(=O)[nH]c3=O)O[C@@H]2COP(=O)(O)OP(=O)(O)OP(=O)(O)O)CCOCC1 [3′-MTHP-dTTP] | not substrates
* Cc1cn([C@H]2C[C@H](OC3CCCO3)[C@@H](COP(=O)(O)OP(=O)(O)OP(=O)(O)O)O2)c(=O)[nH]c1=O (stereo partly shown) [3′-THF-dTTP] | not substrates

---

This section presents compounds with their documented Concentration of unmodified dTTP values.
settings: 250 μM solution of 3′-substituted dTTP, 95° C., PCR buffer (pH 8.4 at 25° C.), 2 min
MEASUREMENT_KIND: Concentration of unmodified dTTP (µM)

* COC1(O[C@H]2C[C@H](n3cc(C)c(=O)[nH]c3=O)O[C@@H]2COP(=O)(O)OP(=O)(O)OP(=O)(O)O)CCOCC1 | 2
* Cc1cn([C@H]2C[C@H](OC3CCCO3)[C@@H](COP(=O)(O)OP(=O)(O)OP(=O)(O)O)O2)c(=O)[nH]c1=O (stereo partly drawn) | 7
* CC(=O)OC1CC(n2cc(C)c(=O)[nH]c2=O)OC1COP(=O)(O)OP(=O)(O)OP(=O)(O)O (stereo not drawn) | 0
* COCC(=O)O[C@H]1C[C@H](n2cc(C)c(=O)[nH]c2=O)O[C@@H]1COP(=O)(O)OP(=O)(O)OP(=O)(O)O [3′-O[CH3OAc]] | 35
* Cc1cn([C@H]2C[C@H](OC(=O)COc3ccccc3)[C@@H](COP(=O)(O)OP(=O)(O)OP(=O)(O)O)O2)c(=O)[nH]c1=O [3′-O[PhOAc]] | 50

---

settings: 250 μM solution of 3′-substituted dTTP, 95° C., PCR buffer (pH 8.4 at 25° C.), 20 min
MEASUREMENT_KIND: Concentration of unmodified dTTP (µM)

- CC(=O)OC1CC(n2cc(C)c(=O)[nH]c2=O)OC1COP(=O)(O)OP(=O)(O)OP(=O)(O)O (stereo not drawn) [3′-Ac-dTTP, 3′-O-acetyl-dTTP]: 18
- Cc1cn([C@H]2C[C@H](OC(=O)COc3ccccc3)[C@@H](COP(=O)(O)OP(=O)(O)OP(=O)(O)O)O2)c(=O)[nH]c1=O [3′-O[PhOAc]]: 209
- Cc1cn([C@H]2C[C@H](OC3CCCCO3)[C@@H](COP(=O)(O)OP(=O)(O)OP(=O)(O)O)O2)c(=O)[nH]c1=O (stereo partly drawn) [3′-THP-dTTP]: 16
- COC1(O[C@H]2C[C@H](n3cc(C)c(=O)[nH]c3=O)O[C@@H]2COP(=O)(O)OP(=O)(O)OP(=O)(O)O)CCOCC1 [3′-MTHP-dTTP]: 47
- COCC(=O)O[C@H]1C[C@H](n2cc(C)c(=O)[nH]c2=O)O[C@@H]1COP(=O)(O)OP(=O)(O)OP(=O)(O)O [3′-O[CH3OAc]]: 195
- Cc1cn([C@H]2C[C@H](OC3CCCO3)[C@@H](COP(=O)(O)OP(=O)(O)OP(=O)(O)O)O2)c(=O)[nH]c1=O (stereo partly drawn) [3′-THF-dTTP]: 57
